# target-entity: Serine/threonine-protein kinase ATR (Homo sapiens, UniProt Q13535)
# Sequence (Q13535 whole entry): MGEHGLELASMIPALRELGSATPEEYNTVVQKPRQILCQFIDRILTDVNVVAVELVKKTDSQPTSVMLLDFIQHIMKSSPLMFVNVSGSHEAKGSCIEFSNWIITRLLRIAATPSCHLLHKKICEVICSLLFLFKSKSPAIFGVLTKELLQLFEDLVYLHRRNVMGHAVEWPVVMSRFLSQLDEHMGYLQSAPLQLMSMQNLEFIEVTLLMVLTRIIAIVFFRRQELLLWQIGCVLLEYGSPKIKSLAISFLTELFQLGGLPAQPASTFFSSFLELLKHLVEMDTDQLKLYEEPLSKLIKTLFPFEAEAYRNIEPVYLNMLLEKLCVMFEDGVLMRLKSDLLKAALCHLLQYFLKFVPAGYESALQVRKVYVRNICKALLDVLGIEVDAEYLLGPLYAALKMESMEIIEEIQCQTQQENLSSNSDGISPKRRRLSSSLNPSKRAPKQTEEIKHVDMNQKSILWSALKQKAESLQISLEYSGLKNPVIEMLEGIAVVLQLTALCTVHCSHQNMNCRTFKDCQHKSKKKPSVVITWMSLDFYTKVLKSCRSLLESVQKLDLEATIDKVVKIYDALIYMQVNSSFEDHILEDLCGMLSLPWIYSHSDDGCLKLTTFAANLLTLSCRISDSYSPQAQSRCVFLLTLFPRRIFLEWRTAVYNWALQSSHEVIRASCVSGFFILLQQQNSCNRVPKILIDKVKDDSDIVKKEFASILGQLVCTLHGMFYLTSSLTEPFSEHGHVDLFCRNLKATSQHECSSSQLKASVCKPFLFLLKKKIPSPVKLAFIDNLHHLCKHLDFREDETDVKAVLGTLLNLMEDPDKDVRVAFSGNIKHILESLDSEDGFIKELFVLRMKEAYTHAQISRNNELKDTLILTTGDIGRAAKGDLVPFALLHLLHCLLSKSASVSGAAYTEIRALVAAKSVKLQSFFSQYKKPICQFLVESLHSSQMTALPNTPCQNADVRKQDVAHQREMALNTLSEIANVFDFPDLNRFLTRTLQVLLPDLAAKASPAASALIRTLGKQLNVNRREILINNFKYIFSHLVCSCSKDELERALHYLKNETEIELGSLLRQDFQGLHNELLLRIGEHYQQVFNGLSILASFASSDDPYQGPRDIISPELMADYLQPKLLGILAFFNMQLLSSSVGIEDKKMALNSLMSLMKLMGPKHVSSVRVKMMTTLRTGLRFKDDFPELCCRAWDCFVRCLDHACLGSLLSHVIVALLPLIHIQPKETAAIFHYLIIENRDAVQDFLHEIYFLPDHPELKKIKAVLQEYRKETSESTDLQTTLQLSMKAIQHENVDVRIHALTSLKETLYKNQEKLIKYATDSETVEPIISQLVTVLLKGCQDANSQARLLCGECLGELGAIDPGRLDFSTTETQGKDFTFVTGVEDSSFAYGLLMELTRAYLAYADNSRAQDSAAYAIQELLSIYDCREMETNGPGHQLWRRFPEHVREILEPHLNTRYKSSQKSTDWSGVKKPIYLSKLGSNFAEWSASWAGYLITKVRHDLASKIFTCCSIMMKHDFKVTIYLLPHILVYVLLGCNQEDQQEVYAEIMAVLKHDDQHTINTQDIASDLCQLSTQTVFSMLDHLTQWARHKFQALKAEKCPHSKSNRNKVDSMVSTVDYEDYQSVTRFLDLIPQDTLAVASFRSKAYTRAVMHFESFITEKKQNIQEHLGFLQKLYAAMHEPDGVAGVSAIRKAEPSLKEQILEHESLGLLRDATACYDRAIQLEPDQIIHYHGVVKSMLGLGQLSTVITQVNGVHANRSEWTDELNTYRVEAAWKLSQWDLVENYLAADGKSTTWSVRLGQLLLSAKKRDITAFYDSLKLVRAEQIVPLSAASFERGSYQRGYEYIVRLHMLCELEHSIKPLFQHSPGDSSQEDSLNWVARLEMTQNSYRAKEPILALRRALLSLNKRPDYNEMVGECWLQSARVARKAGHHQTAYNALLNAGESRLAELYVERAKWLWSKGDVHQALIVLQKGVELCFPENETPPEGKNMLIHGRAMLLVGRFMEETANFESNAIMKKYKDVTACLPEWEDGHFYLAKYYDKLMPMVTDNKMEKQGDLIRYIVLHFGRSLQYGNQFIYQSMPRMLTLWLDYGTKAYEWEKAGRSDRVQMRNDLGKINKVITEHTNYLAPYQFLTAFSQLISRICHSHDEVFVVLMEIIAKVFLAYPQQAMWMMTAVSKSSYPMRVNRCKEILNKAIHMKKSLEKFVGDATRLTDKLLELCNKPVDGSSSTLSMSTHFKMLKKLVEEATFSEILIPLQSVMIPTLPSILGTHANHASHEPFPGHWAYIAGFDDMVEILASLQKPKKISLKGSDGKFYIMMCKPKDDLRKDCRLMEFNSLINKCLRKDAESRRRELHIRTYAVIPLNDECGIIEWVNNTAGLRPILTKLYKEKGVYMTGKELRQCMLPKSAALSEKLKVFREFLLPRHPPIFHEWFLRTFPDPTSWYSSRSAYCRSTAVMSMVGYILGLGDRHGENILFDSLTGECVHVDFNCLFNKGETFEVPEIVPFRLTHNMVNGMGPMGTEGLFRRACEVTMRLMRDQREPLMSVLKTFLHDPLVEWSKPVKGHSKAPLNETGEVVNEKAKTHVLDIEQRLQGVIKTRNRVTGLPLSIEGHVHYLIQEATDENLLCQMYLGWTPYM
measurement-kind: IC50 (nM)
Kindly answer with a numeric value in nM, unit omitted.

[in] Which IC50 is reported for this molecule? Cc1nn(-c2cncc(C#N)c2)c(C)c1-c1cc(N2CCOC[C@H]2C)nc2c(-c3ccn[nH]3)cnn12
[out] 9

# credit: BindingDB's records for patent US20230271968
